assay: Plasma methadone concentrations by liquid chromatography/triple quadrupole mass spectrometry (Example I); details: dog, in vivo, Mean plasma methadone concentration, methadone 1 mg/kg PO 24 h after starting fluconazole 2.5 mg/kg PO q 12 h; 24 hr
endpoint: concentration at 24 h (ng/mL)
Report as a plain number; the unit ng/mL is understood.

Param item = CCC(=O)C(CC(C)N(C)C)(c1ccccc1)c1ccccc1 (racemic) ; retrieve measured concentration at 24 h. 5.6

---

assay: Plasma methadone concentrations by liquid chromatography/triple quadrupole mass spectrometry (Example I); details: dog, in vivo, Mean plasma methadone concentration, methadone 1 mg/kg PO 24 h after starting fluconazole 2.5 mg/kg PO q 12 h; 0.667 hr
endpoint: concentration at 0.667 h (ng/mL)
Report as a plain number; the unit ng/mL is understood.

Param item = CCC(=O)C(CC(C)N(C)C)(c1ccccc1)c1ccccc1 (racemic) ; retrieve measured concentration at 0.667 h. 5.2

---

assay: Plasma methadone concentrations by liquid chromatography/triple quadrupole mass spectrometry (Example I); conditions: dog, in vivo, 1 mg/kg, Mean plasma methadone concentration, methadone alone 1 mg/kg PO; 2 hr; 6 dogs
endpoint: concentration at 2 h
Answer by giving the amount and then stating its unit.

Param item = CCC(=O)C(CC(C)N(C)C)(c1ccccc1)c1ccccc1 (racemic) [methadone] ; retrieve measured concentration at 2 h. 0.7 ng/mL

---

assay: Plasma methadone concentrations by liquid chromatography/triple quadrupole mass spectrometry (Example I); details: dog, in vivo, Mean plasma methadone concentration, methadone 1 mg/kg PO 24 h after starting fluconazole 2.5 mg/kg PO q 12 h; 12 hr
endpoint: concentration at 12 h (ng/mL)
Report as a plain number; the unit ng/mL is understood.

Param item = CCC(=O)C(CC(C)N(C)C)(c1ccccc1)c1ccccc1 (racemic) ; retrieve measured concentration at 12 h. 11.6

---

assay: Plasma methadone concentrations by liquid chromatography/triple quadrupole mass spectrometry (Example I); conditions: dog, in vivo, Mean plasma methadone concentration, methadone 1 mg/kg PO 24 h after starting fluconazole 5 mg/kg PO q 12 h; 8 hr
endpoint: concentration at 8 h (µg/mL)
Report as a plain number; the unit µg/mL is understood.

Param item = CCC(=O)C(CC(C)N(C)C)(c1ccccc1)c1ccccc1 (racemic) [methadone] ; retrieve measured concentration at 8 h. 0.0276

---

assay: Plasma methadone concentrations by liquid chromatography/triple quadrupole mass spectrometry (Example I); conditions: dog, in vivo, 1 mg/kg, Plasma methadone concentration, individual dogs, methadone alone 1 mg/kg PO; 1 hr; Dog 1-6
endpoint: concentration at 1 h (ng/mL)
Report as a plain number; the unit ng/mL is understood.

Param item = CCC(=O)C(CC(C)N(C)C)(c1ccccc1)c1ccccc1 (racemic) [methadone] ; retrieve measured concentration at 1 h. 1
